Target: Fuc(a1-4)GlcNAc
Assay: glycan array binding signal (z-score within array); higher = stronger binding
Conditions: glycan notation: IUPAC condensed, linker removed
This is one part of a sample in which the strongest signals are shown more often than they occur.

| Binder | glycan array binding signal (z-score) |
| --- | --- |
| HFR-1 (Triticum aestivum) (protein) MSPQSFTLETTTTTPAAKGSDPSYFQSAPACHEMIQHKELLLHLYAYQNVQKTPDANQAVIVESKRPECFGILAANDWTVYDGPAHNANLVAHAQGLHLGASMAKENWFICFNMVFVNQRFTGSSFKVMGDFQGTAHNGEWAIVGGTGEFAYAQGVIAFKKTQQSERNARMELHVRAMCLSFLRPLLSLGDGSAVAKIGPWGKMSGELLDIPSTPQRLERITIRHGVVIDSLAFSFIDKAGEPYNVGPWGGRRGDNKDTIELAPSEIVTEVSGTVGIFAEDNVEYNAIASLTITTNHRPYGPFGETQSTPFSVPVQDNNNIVGFFACAGKYVEALGVYVRSPVST | -0.057 |
